Data origin: paper PMC6897945

# Procedure summary: Cytotoxic activity, MTT method
# Assay type: cell-based
# Measurement conditions: human; L02 normal cell line; read-out: Cytotoxic activities IC50, L02
Criterion: IC50 strictly under 4 µM. Met: satisfied. Not met: not satisfied.

# example entries with known answers
[[record]]
input_smiles = "CC[C@@]1(O)C[C@H](O)c2c(O)c3c(c(O)c2[C@H]1C(=O)OC)C(=O)c1cccc(O)c1C3=O"
category_label = "not satisfied"

[[record]]
input_smiles = "CC[C@@]1(O)CCc2c(O)c3c(c(O)c2[C@H]1O[C@H]1C[C@H](N(C)C)[C@H](O[C@H]2CC[C@H](O[C@H]4CC[C@H](O)[C@H](C)O4)[C@H](C)O2)[C@H](C)O1)C(=O)c1cccc(O)c1C3=O"
category_label = "satisfied"

[[record]]
input_smiles = "CC[C@@]1(O)C[C@H](O[C@H]2C[C@H](N(C)C)[C@H](O[C@H]3C[C@H](O)[C@H](O[C@H]4CC[C@H](O)[C@H](C)O4)[C@H](C)O3)[C@H](C)O2)c2c(O)c3c(c(O)c2[C@H]1O[C@H]1C[C@H](N(C)C)[C@H](O[C@H]2C[C@H](O)[C@H](O[C@H]4CC[C@H](O)[C@H](C)O4)[C@H](C)O2)[C@H](C)O1)C(=O)c1cccc(O)c1C3=O"
category_label = "satisfied"

[[record]]
input_smiles = "CC[C@@]1(O)C[C@H](O[C@H]2C[C@H](N(C)C)[C@H](O)[C@H](C)O2)c2c(O)c3c(c(O)c2[C@H]1C(=O)OC)C(=O)c1cccc(O)c1C3=O"
category_label = "not satisfied"

[[record]]
input_smiles = "CC[C@@]1(O)CCc2c(O)c3c(c(O)c2[C@H]1O[C@H]1C[C@H](N(C)C)[C@H](O[C@H]2C[C@H](O)[C@H](O[C@H]4CC[C@H](O)[C@H](C)O4)[C@H](C)O2)[C@H](C)O1)C(=O)c1cccc(O)c1C3=O"
category_label = "satisfied"

[[record]]
input_smiles = "CC[C@@]1(O[C@H]2C[C@H](N(C)C)[C@H](O)[C@H](C)O2)CCc2c(O)c3c(c(O)c2[C@H]1O[C@H]1C[C@H](N(C)C)[C@H](O[C@H]2CC[C@H](O[C@H]4CC[C@H](O)[C@H](C)O4)[C@H](C)O2)[C@H](C)O1)C(=O)c1cccc(O)c1C3=O"
category_label = "satisfied"


Could you now consider this next molecule?
In: Would you kindly verify if IC50 of CC[C@]1(O)Cc2c(O)c3c(c(O)c2[C@@H](O[C@H]2C[C@H](N(C)C)[C@H](O)[C@H](C)O2)C1)C(=O)c1c(O)cccc1C3=O is strictly less than 4 µM?
Out: not satisfied

###

The following compounds are listed with their measured pIC50 values.
# Procedure summary: Cytotoxic activity, MTT method
# Type: cell-based
# Measurement conditions: human; Huvec-12 normal cell line; read-out: Cytotoxic activities IC50, Huvec-12
Expect pIC50 as a plain number equal to -log10 of the molar concentration.

[[record]]
compound = "CC[C@@]1(O)C[C@H](O[C@H]2C[C@H](N(C)C)[C@@H](O[C@H]3C[C@H](O)[C@@H](O[C@H]4CC[C@H](O)[C@H](C)O4)[C@H](C)O3)[C@H](C)O2)c2c(O)c3c(c(O)c2[C@H]1O[C@H]1C[C@H](N(C)C)[C@@H](O[C@H]2CC[C@H](O[C@H]4CC[C@H](O)[C@H](C)O4)[C@H](C)O2)[C@H](C)O1)C(=O)c1cccc(O)c1C3=O [Compound 6, cosmomycin C]"
numeric_readout = 6.54

[[record]]
compound = "CC[C@@]1(O)CCc2c(O)c3c(c(O)c2[C@H]1O[C@H]1C[C@H](N(C)C)[C@H](O)[C@H](C)O1)C(=O)c1cccc(O)c1C3=O [Compound 5, iremycin]"
numeric_readout = 4.87


# next compound below
In: Quick one: give measured pIC50 for CC[C@]1(O)Cc2c(O)c3c(c(O)c2[C@@H](O[C@H]2C[C@H](N(C)C)[C@H](O)[C@H](C)O2)C1)C(=O)c1c(O)cccc1C3=O [Compound 8, 10-decarbomethoxy-ε-rhodomycin]
Out: 5.16
